Origin of measurements: patent US20170088624A1

# tested target: T1, Full length human CD40 (huCD40) on cells (human, UniProt P25942 21-277)
# T1 construct: CD40 on human mature DCs, human B cells, Raji cells and HEK-Blue CD40L cells (stably expressing human CD40); also called TNFRSF5
# T1 sequence (P25942 21-277): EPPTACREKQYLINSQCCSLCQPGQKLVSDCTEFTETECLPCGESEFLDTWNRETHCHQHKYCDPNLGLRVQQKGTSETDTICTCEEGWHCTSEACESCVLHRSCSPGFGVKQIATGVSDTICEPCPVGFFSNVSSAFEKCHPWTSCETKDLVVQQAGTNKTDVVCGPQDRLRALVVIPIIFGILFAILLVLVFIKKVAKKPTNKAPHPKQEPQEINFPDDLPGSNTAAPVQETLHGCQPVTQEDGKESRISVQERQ
# assay details: flow cytometry, human B cells
measure name: EC50 (µg/mL)

binder="C40M18 (antibody, human IgG1, lambda, V domains shown, Full-length IgG1/lambda; from OmniRat (OMT); VH C40H48, VL C40L64) VH: EVQLVESGGGLVQPGGSLRLSCAASGFTFSSYAMSWVRQAPGKGLEWVSIINNNVGRTYYADSVKGRFTISRDNSKNTLYLQMNSLRAEDTAVYYCAKEGGDYYYYGMDVWGQGTTVTVSS VL: SYELTQPPSVSVSPGQTASITCSGDKLGDKYVCWYQQKPGQSPVVVIYQDSKRPSGIPERFSGSNSGNTATLTISGTQAMDEAYYYCQAWVSSTVVFGGGTKLTVLG" reported_value=0.11
binder="C40M103 (antibody, human IgG1, lambda, V domains shown, Variant of C40M18 (VH C40H48, VL C40L69; LCDR1 cysteine mutated); cloned as IgG1) VH: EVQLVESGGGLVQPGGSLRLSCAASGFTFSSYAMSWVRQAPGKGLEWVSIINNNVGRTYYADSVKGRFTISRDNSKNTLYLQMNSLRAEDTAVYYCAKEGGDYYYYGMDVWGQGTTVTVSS VL: SYELTQPPSVSVSPGQTASITCSGDKLGDKYVSWYQQKPGQSPVLVIYQDSKRPSGIPERFSGSNSGNTATLTISGTQAMDEADYYCQAWVSSTVVFGGGTKLTVLG" reported_value=0.075
binder="C40M104 (antibody, human IgG1, lambda, V domains shown, Variant of C40M18 (VH C40H48, VL C40L68; LCDR1 cysteine mutated); cloned as IgG1) VH: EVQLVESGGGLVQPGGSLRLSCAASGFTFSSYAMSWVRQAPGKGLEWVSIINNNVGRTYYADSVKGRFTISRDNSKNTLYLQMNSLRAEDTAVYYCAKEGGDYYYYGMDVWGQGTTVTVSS VL: SYELTQPPSVSVSPGQTASITCSGDKLGDKYVSWYQQKPGQSPVVVIYQDSKRPSGIPERFSGSNSGNTATLTISGTQAMDEAYYYCQAWVSSTVVFGGGTKLTVLG" reported_value=0.11
binder="C40M105 (antibody, human IgG1, lambda, V domains shown) VH: QLQLQESGPGLVKPSETLSLTCTVSGGSISSSSYYWGWIRQPPGKGLEWIGNIYYRGDTYYSPSLKSRVTISVDTSKNQFSLKLSSVTAADTAVYYCARGFRFDYWGQGTLVTVSS VL: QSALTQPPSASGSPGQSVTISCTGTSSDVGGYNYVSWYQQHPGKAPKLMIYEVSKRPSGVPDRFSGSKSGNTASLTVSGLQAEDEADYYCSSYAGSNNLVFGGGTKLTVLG" reported_value=6.65
binder="C40M9 (antibody, human IgG1, lambda, V domains shown) VH: QLQLQESGPGLVKPSEILSLTCTVSGGSISSSSYYWGWIRQPPGKGLEWIGNIYYRGDTYYSPSLKSRVTISVDTSKNQFSLKLNSVTAADTAVYYCAKGFRFDYWGQGTLVTVSS VL: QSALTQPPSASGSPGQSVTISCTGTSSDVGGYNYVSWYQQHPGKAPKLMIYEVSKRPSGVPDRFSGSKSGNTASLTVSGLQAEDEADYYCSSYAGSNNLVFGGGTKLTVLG" reported_value=0.0609
